system: 126254-015-R-J1-PDC complex spheroid growth, % test/control; assay: Anticancer human tumor 126254-015-R-J1-PDC patient-derived soft tissue sarcoma cell line growth inhibition [Asc]; conditions: second compound 0.03 µM; first compound 0.1 µM; stronger effect = lower value
measurement.kind: viability, T/C

>>> reported_value("COc1c(OCCCN2CCOCC2)ccc2c3n(c(=NC(=O)c4cnc(N)nc4)nc12)CCN3 + CCN1C(C(=O)NC23CCC(C(=O)O)(CC2)CC3)C(c2cccc(Cl)c2F)C2(C(=O)Nc3cc(Cl)ccc32)C12CCCCC2")
"28.8%"
>>> reported_value("Cn1ncnc1[C@H]1c2n[nH]c(=O)c3cc(F)cc(c23)N[C@@H]1c1ccc(F)cc1 + CCN1C(C(=O)NC23CCC(C(=O)O)(CC2)CC3)C(c2cccc(Cl)c2F)C2(C(=O)Nc3cc(Cl)ccc32)C12CCCCC2")
"75.4%"
>>> reported_value("C#Cc1c(F)ccc2cc(O)cc(-c3ncc4c(N5CC6CCC(C5)N6)nc(OCC56CCCN5CC(F)C6)nc4c3F)c12 (stereo not given) + CCN1C(C(=O)NC23CCC(C(=O)O)(CC2)CC3)C(c2cccc(Cl)c2F)C2(C(=O)Nc3cc(Cl)ccc32)C12CCCCC2")
"102%"
>>> reported_value("C=C(F)C(=O)N1CCN(c2nc(OCC3CCCN3C)nc3c2CCN(c2cccc4cccc(Cl)c24)C3)CC1CC#N (stereo not given) + CCN1C(C(=O)NC23CCC(C(=O)O)(CC2)CC3)C(c2cccc(Cl)c2F)C2(C(=O)Nc3cc(Cl)ccc32)C12CCCCC2")
"103%"

Now for a further compound.
Quick check: viability, T/C of CCN1CCN(Cc2ccc(Nc3ncc(F)c(-c4cc(F)c5nc(C)n(C(C)C)c5c4)n3)nc2)CC1 + CCN1C(C(=O)NC23CCC(C(=O)O)(CC2)CC3)C(c2cccc(Cl)c2F)C2(C(=O)Nc3cc(Cl)ccc32)C12CCCCC2 ?
91.3%

* * *

System: 126254-015-R-J1-PDC complex spheroid growth, % test/control
Assay: Anticancer human tumor 126254-015-R-J1-PDC cell line growth inhibition [Asc];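 also: spheroids exposed to compound for seven days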
Settings: curve of first compound; second compound 0.316 µM
From the text: Multicellular complex tumor spheroid response to apoptosis pathway targeting inhibitors Alrizomadlin, Pelcitoclax, and Dasminapant in combination with a variety of drugs and investigational agents in selected tumor cell lines […] Compounds. […] If the clinical Cmax for an agent had not been determined, the highest concentration tested was 10 microM. […]
measurement.kind: IC50

These solved cases illustrate the format of a correct answer.
>>> reported_value("CCN1CCN(Cc2ccc(Nc3ncc(F)c(-c4cc(F)c5nc(C)n(C(C)C)c5c4)n3)nc2)CC1 + CNC(C)C(=O)NC1CN(S(=O)(=O)c2cccc(S(=O)(=O)N3CCC4CCC(C(=O)NC(c5ccccc5)c5ccccc5)N4C(=O)C(NC(=O)C(C)NC)C3)c2)CCC2CCC(C(=O)NC(c3ccccc3)c3ccccc3)N2C1=O")
"> 1000 nM"
>>> reported_value("NC1CCC(NC2CC2c2ccccc2)CC1 (centres undefined) + Cc1c(S(C)(=O)=O)c(-c2cc(F)cc(N3CCN(c4ccc(NS(=O)(=O)c5ccc(NC(CCN6CCC(C(=O)OCCCP(=O)(O)O)CC6)CSc6ccccc6)c(S(=O)(=O)C(F)(F)F)c5)cc4)CC3)c2)c(-c2ccc(Cl)cc2)n1C(C)C")
"> 100 nM"
>>> reported_value("Cn1ncnc1[C@H]1c2n[nH]c(=O)c3cc(F)cc(c23)N[C@@H]1c1ccc(F)cc1 + Cc1c(S(C)(=O)=O)c(-c2cc(F)cc(N3CCN(c4ccc(NS(=O)(=O)c5ccc(NC(CCN6CCC(C(=O)OCCCP(=O)(O)O)CC6)CSc6ccccc6)c(S(=O)(=O)C(F)(F)F)c5)cc4)CC3)c2)c(-c2ccc(Cl)cc2)n1C(C)C")
"> 100 nM"

Now for a further compound.
Quick check: IC50 of C=CC(=O)N1CCN(c2nc(=O)n(-c3c(C)ccnc3C(C)C)c3nc(-c4c(O)cccc4F)c(F)cc23)C(C)C1 (centres undefined) + CNC(C)C(=O)NC1CN(S(=O)(=O)c2cccc(S(=O)(=O)N3CCC4CCC(C(=O)NC(c5ccccc5)c5ccccc5)N4C(=O)C(NC(=O)C(C)NC)C3)c2)CCC2CCC(C(=O)NC(c3ccccc3)c3ccccc3)N2C1=O ?
> 10000 nM
